# experimental_system: T1, Cdc25, P04821
# T1 sequence (P04821 50-136, looked up): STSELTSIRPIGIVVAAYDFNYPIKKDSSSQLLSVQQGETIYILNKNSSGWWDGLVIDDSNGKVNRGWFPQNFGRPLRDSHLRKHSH
# experiment_notes: SPOT array
# reported_conditions: median of control spots 969
metric: SPOT intensity

Would you please look over these solved cases?
{"columns": ["binder", "SPOT intensity"],
 "data": [
  ["SAPDIPPRSPNRNAH", 0],
  ["KKIRLIFTYPSTVGR", 163],
  ["ATNVPVAPPPPPASL", 0],
  ["RSRRSSFAYPQQVAI", 10],
  ["QGYPRQPQRPQRYHP", 0],
  ["QPPLPSSAPPIPTSH", 0],
  ["LKRITSPPLPPRADS", 0],
  ["QLLNPNRRAPRRPLS", 16],
  ["KKAPPPVVKPKPRNF", 15],
  ["VATSTSPKLPPRGKQ", 0]
]}

a = LKQRFFLMFPKSIIW
b = PSTMDFPKLPSFQNS
c = TKFRISLGLPVGAIM
IN: Task field, ranking: reported SPOT intensity, descending order. Ranked list of labels, please, in the requested order.
OUT: c, a, b
(c: 108, a: 25, b: 0)
